Kindly state clearance for each of the entries shown.
# test: Pharmacokinetics after intravenous administration to rats
# Format: in vivo, Sprague-Dawley rats
# conditionSummary: rat, plasma, 1 mg/kg each as 1:1:1 mixture, male Sprague-Dawley rats
Answers are plain numbers, in mL/min/kg.

Field: example entries. Status: answers known.
>>> testresult("Cn1ncnc1COc1nn2c(-c3cc(F)ccc3F)nnc2cc1C(C)(C)C [Compound L-838417, reference compound]")
18.3
>>> testresult("[2H]C([2H])([2H])C(c1cc2nnc(-c3cc(F)ccc3F)n2nc1OCc1ncnn1C)(C([2H])([2H])[2H])C([2H])([2H])[2H]")
8

Incoming: Identify clearance associated with the compound [2H]C([2H])(Oc1nn2c(-c3cc(F)ccc3F)nnc2cc1C(C([2H])([2H])[2H])(C([2H])([2H])[2H])C([2H])([2H])[2H])c1ncnn1C([2H])([2H])[2H]
Outgoing: 7.67

---

Kindly state half-life at 0.25 µM for each of the entries shown.
# test: Metabolic stability in rat liver microsomes
# Format: in vitro ADME
# conditionSummary: pH 7.4, calculated from slope of ln % parent remaining vs time, read-out: in vitro half-life
Provide the measurement as a number trailed by its unit.

>>> testresult("[2H]C([2H])(Oc1nn2c(-c3cc(F)ccc3F)nnc2cc1C(C)(C)C)c1ncnn1C([2H])([2H])[2H]")
"52.7 min"

Now for the compound whose half-life at 0.25 µM we want.
Incoming: Identify half-life at 0.25 µM associated with the compound Cn1ncnc1COc1nn2c(-c3cc(F)ccc3F)nnc2cc1C(C)(C)C [Compound L-838417, reference compound]
Outgoing: 50.5 min

---

# test: Pharmacokinetics after oral administration to rats
# Assay type: in vivo, Sprague-Dawley rats
# conditionSummary: rat, plasma; oral gavage, 1 mg/kg each as 1:1:1 mixture, male Sprague-Dawley rats; read-out: AUC0-6
assayEndpoint: AUC(0-t) (ng·h/mL)
One number for each entry, in ng·h/mL.

>>> testresult("[2H]C([2H])([2H])C(c1cc2nnc(-c3cc(F)ccc3F)n2nc1OCc1ncnn1C)(C([2H])([2H])[2H])C([2H])([2H])[2H]")
1260

For each entry beneath this line, provide reported AUC(0-t).
1. Cn1ncnc1COc1nn2c(-c3cc(F)ccc3F)nnc2cc1C(C)(C)C [Compound L-838417, reference compound]
2. [2H]C([2H])(Oc1nn2c(-c3cc(F)ccc3F)nnc2cc1C(C([2H])([2H])[2H])(C([2H])([2H])[2H])C([2H])([2H])[2H])c1ncnn1C([2H])([2H])[2H]

Outgoing:
1: 491; 2: 1250

---

# test: Pharmacokinetics after oral administration to rats
# Type: in vivo, Sprague-Dawley rats
# conditionSummary: rat, plasma; oral gavage, 1 mg/kg each as 1:1:1 mixture, male Sprague-Dawley rats
# From the text: […]
assayEndpoint: Cmax (ng/mL)
Give bare numbers, in ng/mL.

Field: example entries. Status: answers known.
>>> testresult("[2H]C([2H])([2H])C(c1cc2nnc(-c3cc(F)ccc3F)n2nc1OCc1ncnn1C)(C([2H])([2H])[2H])C([2H])([2H])[2H]")
277
>>> testresult("Cn1ncnc1COc1nn2c(-c3cc(F)ccc3F)nnc2cc1C(C)(C)C [Compound L-838417, reference compound]")
128

Now for the compound whose Cmax we want.
Incoming: Identify Cmax associated with the compound [2H]C([2H])(Oc1nn2c(-c3cc(F)ccc3F)nnc2cc1C(C([2H])([2H])[2H])(C([2H])([2H])[2H])C([2H])([2H])[2H])c1ncnn1C([2H])([2H])[2H]
Outgoing: 280

---

# test: Pharmacokinetics after intravenous administration to rats
# Format: in vivo, Sprague-Dawley rats
# conditionSummary: rat, plasma, 1 mg/kg each as 1:1:1 mixture, male Sprague-Dawley rats, read-out: AUC0-6
Kindly state AUC(0-t) for each of the entries shown.
Answers are plain numbers, in ng·h/mL.

Field: example entries. Status: answers known.
>>> testresult("[2H]C([2H])([2H])C(c1cc2nnc(-c3cc(F)ccc3F)n2nc1OCc1ncnn1C)(C([2H])([2H])[2H])C([2H])([2H])[2H] [Compound 103]")
1920
>>> testresult("Cn1ncnc1COc1nn2c(-c3cc(F)ccc3F)nnc2cc1C(C)(C)C [Compound L-838417, reference compound]")
831

Incoming: Identify AUC(0-t) associated with the compound [2H]C([2H])(Oc1nn2c(-c3cc(F)ccc3F)nnc2cc1C(C([2H])([2H])[2H])(C([2H])([2H])[2H])C([2H])([2H])[2H])c1ncnn1C([2H])([2H])[2H] [Compound 105]
Outgoing: 1960
